B1: scFv; the commonest letter at each place (parent)
chain 1: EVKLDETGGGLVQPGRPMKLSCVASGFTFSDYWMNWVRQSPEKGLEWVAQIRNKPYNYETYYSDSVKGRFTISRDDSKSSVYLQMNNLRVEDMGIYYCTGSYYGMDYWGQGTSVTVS
chain 2: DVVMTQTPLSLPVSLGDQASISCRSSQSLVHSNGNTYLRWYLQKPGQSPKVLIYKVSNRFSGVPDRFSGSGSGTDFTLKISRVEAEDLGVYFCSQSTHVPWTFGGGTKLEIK

variants of: B1; assay: Kd (Tite-Seq); details: with fluorescein; format: scFv 4-4-20, heavy + light
measured attribute: Kd

// below: answered variants
INSERT INTO assay_data (mutation_notation, endpoint_result) VALUES
  ('chain 1 Y32V', '≥ 10 µM'),
  ('chain 1 T28C Y32W', '≥ 10 µM'),
  ('chain 1 F29G', '≥ 10 µM'),
  ('chain 1 S101Y Y102P', '≥ 10 µM');

Name the reported Kd value associated with the variant chain 1 G100S Y103P
≥ 10 µM

Entry chain 1 M34P V37L please
≥ 10 µM

Please answer likewise for chain 1 S30V W33A
≥ 10 µM

Same question for chain 1 W36T V37D please.
≥ 10 µM

Same question for chain 1 F29R D31G please.
≥ 10 µM
